Every entry's value here was drawn from patent US20220144838A1.

# maps each entry to its IC50
Target: MIF (Homo sapiens)
Assay: MIF tautomerase assay using pHPP as substrate
Assay type: biochemical
Conditions: inhibition of the MIF enzyme in vitro; mean of multiple test results; read-out: Tautomerase Inhibition pIC50 (converted)

The examples below pair each entry with its known result.
SMILES_REPR	TGT	IC50
Nc1nc(N2CCN(c3ccc(O)cn3)CC2)nc2c1ccn2-c1ccncc1	MIF (Homo sapiens)	1000 to 9770 nM
O=C(O)Cn1cnc2c(-n3ncc4ccccc43)nc(N3CCC(O)(c4ccc(F)cc4)CC3)nc21	MIF (Homo sapiens)	100 to 977 nM
OCC(CO)Nc1nc(N2CCN(c3ccc(O)cc3)CC2)nc2c1ncn2-c1ccncc1	MIF (Homo sapiens)	10 to 97.7 nM

Now examine the next entry.
// fetch IC50 given entry Nc1nc(N2CCN(c3ccc(O)cc3)CC2)nc2c1ncn2-c1cccnc1
100 to 977 nM

----------
# maps each entry to its IC50
Target: UniProt:P14174
Test: MIF tautomerase assay using pHPP as substrate
Format: biochemical
Settings: inhibition of the MIF enzyme in vitro; mean of multiple test results; read-out: Tautomerase Inhibition pIC50 (converted)

SMILES_REPR	TGT	IC50
OCCn1cnc2c(-n3ncc4ccccc43)nc(N3CC(O)(c4ccccc4)C3)nc21	UniProt:P14174	1 to 9.77 µM
Nc1nc(N2CCN(c3ccc(CO)cc3)CC2)nc2c1ncn2-c1ccncc1	UniProt:P14174	> 10 µM

// fetch IC50 given entry Cc1nc(N2CCC(O)(c3ccc(O)cc3)CC2)nc2c1ncn2CC(=O)O
> 10 µM

// fetch IC50 given entry CCOC(=O)Cn1cnc2c(-n3ncc4ccccc43)nc(N3CCN(c4ccc(O)cc4)CC3)nc21
0.1 to 0.977 µM

----------
Target: MIF (Homo sapiens, UniProt P14174)
Sequence (P14174 2-115 limits assumed): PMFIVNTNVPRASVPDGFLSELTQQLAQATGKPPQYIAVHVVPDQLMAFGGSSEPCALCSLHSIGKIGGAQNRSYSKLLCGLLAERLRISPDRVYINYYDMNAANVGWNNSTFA
Test: MIF tautomerase assay using pHPP as substrate
Format: biochemical
Conditions: inhibition of the MIF enzyme in vitro; mean of multiple test results; read-out: Tautomerase Inhibition pIC50 (converted)
QUANTITY_KIND: IC50

SMILES_REPR	TGT	IC50
O=C(Cn1cnc2c(-n3ncc4ccccc43)nc(N3CCN(c4ccc(O)cc4)CC3)nc21)NS(=O)(=O)Cc1ccccc1	MIF (Homo sapiens, UniProt P14174)	0.1 to 0.977 µM
OCCn1cnc2c(-n3cnc4ccccc43)nc(N3CCN(c4ccc(O)cc4)CC3)nc21	MIF (Homo sapiens, UniProt P14174)	0.1 to 0.977 µM
O=C(O)Cn1cnc2c(-n3nnc4c(CO)cccc43)nc(N3CCN(c4ccc(O)cc4)CC3)nc21	MIF (Homo sapiens, UniProt P14174)	0.01 to 0.0977 µM
Nc1nc(N2CC(O)(c3ccns3)C2)nc2c1ncn2-c1ccncc1	MIF (Homo sapiens, UniProt P14174)	> 10 µM
COC(=O)c1ccc(-n2cnc3c(N)nc(N4CCN(c5ccc(O)cc5)CC4)nc32)cc1	MIF (Homo sapiens, UniProt P14174)	0.1 to 0.977 µM
O=C(Cn1cnc2c(-n3ncc4ccccc43)nc(N3CCN(c4ccc(O)cc4)CC3)nc21)NS(=O)(=O)c1ccccc1	MIF (Homo sapiens, UniProt P14174)	0.1 to 0.977 µM
Cc1nc2ccccc2n1-c1nc(N2CCN(c3ccc(O)cc3)CC2)nc2c1ncn2CC(=O)O	MIF (Homo sapiens, UniProt P14174)	1 to 9.77 µM

Now examine the next entry.
// fetch IC50 given entry Oc1ccc(N2CCN(c3nc(N4CCc5ccccc54)c4ncn(-c5cccnc5)c4n3)CC2)cc1
0.1 to 0.977 µM

----------
Molecular target: MIF (Homo sapiens, UniProt P14174)
Assay: MIF tautomerase assay using pHPP as substrate
Type: biochemical
Conditions: inhibition of the MIF enzyme in vitro; mean of multiple test results; read-out: Tautomerase Inhibition pIC50 (converted)
# maps each entry to its IC50

The examples below pair each entry with its known result.
COMPOUND	IC50
N#Cc1ccc2c(cnn2-c2nc(N3CCN(c4ccc(O)cc4)CC3)nc3c2ncn3CC(=O)O)c1 [Example 52]	10 to 97.7 nM
O=C(O)Cn1cnc2c(-n3nc(CO)c4ccccc43)nc(N3CCN(c4ccc(O)cc4)CC3)nc21 [Example 11]	10 to 97.7 nM
O=C(O)C(CC1CC1)n1cnc2c(-n3ncc4ccccc43)nc(N3CCN(c4ccc(O)cn4)CC3)nc21 (stereo not shown) [Example 151]	10 to 97.7 nM

Now examine the next entry.
// fetch IC50 given entry CCOc1ncccc1-n1cnc2c(N)nc(N3CCN(c4ccc(O)cc4)CC3)nc21 [Example 83]
1000 to 9770 nM

----------
# maps each entry to its IC50
Target: MIF (Homo sapiens)
Sequence (P14174 2-115 limits assumed): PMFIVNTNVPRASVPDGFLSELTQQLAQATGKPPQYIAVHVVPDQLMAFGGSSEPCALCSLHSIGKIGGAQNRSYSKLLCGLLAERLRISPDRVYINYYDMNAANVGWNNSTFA
Assay: MIF tautomerase assay using pHPP as substrate
Type: biochemical
Conditions: inhibition of the MIF enzyme in vitro; mean of multiple test results; read-out: Tautomerase Inhibition pIC50 (converted)

The examples below pair each entry with its known result.
COMPOUND	IC50
O=C(O)Cn1cnc2c(-n3ncc4ccccc43)nc(N3CCN(c4ncc(O)cc4F)CC3)nc21	> 10000 nM
OCCn1cnc2c(-n3ncc4ccccc43)nc(N3CCC(O)(c4ccc(F)cc4)CC3)nc21	1000 to 9770 nM
O=C(O)Cn1cnc2c(-n3ncc4c(Cl)cccc43)nc(N3CCN(c4ccc(O)cc4)CC3)nc21	100 to 977 nM

// fetch IC50 given entry CS(=O)(=O)NCCn1cnc2c(-n3ncc4ccccc43)nc(N3CCN(c4ccc(O)cc4)CC3)nc21
1000 to 9770 nM

// fetch IC50 given entry CCCS(=O)(=O)NC(=O)Cn1cnc2c(-n3ncc4ccccc43)nc(N3CCN(c4ccc(O)cc4)CC3)nc21
100 to 977 nM

// fetch IC50 given entry Oc1ccc(N2CCN(c3ncc4ncn(-c5ccncc5)c4n3)CC2)cc1
10 to 97.7 nM

// fetch IC50 given entry Nc1nc(N2CCN(c3ccc(C(=O)O)cn3)CC2)nc2c1ncn2-c1ccncc1
> 10000 nM

// fetch IC50 given entry Oc1ccc(N2CCN(c3nc(-n4ncc5ccccc54)c4ncn(Cc5ccccn5)c4n3)CC2)cc1
100 to 977 nM

// fetch IC50 given entry Nc1nc(N2CCN(c3ccc(CCO)cc3)CC2)nc2c1ncn2-c1ccncc1
> 10000 nM

// fetch IC50 given entry Nc1nc(N2CCN(c3ccc(O)cc3)CC2)nc2c1ncn2C1CCNCC1
> 10000 nM

// fetch IC50 given entry O=C(O)C1CCN(c2nc(N3CCN(c4ccc(O)cc4)CC3)nc3c2ncn3-c2ccncc2)C1 (stereo not shown)
10 to 97.7 nM

----------
# maps each entry to its IC50
Target: MIF (Homo sapiens, UniProt P14174)
Test: MIF tautomerase assay using pHPP as substrate
Format: biochemical
Conditions: inhibition of the MIF enzyme in vitro; mean of multiple test results; read-out: Tautomerase Inhibition pIC50 (converted)

The examples below pair each entry with its known result.
MOLECULE	QUANTITY_KIND	REPORTED_VALUE
OCCn1cnc2c(N[C@@H](CO)Cc3ccccc3)nc(N3CCN(c4ccc(O)cc4)CC3)nc21 [Example 5]	IC50	> 10000 nM
Nc1nc(N2CC(O)(c3ccc(CO)cc3)C2)nc2c1ncn2-c1ccncc1 [Example 214]	IC50	> 10000 nM
O=C(O)Cn1cnc2c(-n3nc(-c4cccnc4)c4ccccc43)nc(N3CCN(c4ccc(O)cc4)CC3)nc21 [Example 36]	IC50	100 to 977 nM
CC(C)(C)OC(=O)Cn1cnc2c(-n3nnc4c(C(=O)O)cccc43)nc(N3CCN(c4ccc(O)cc4)CC3)nc21 [Example 100]	IC50	10 to 97.7 nM
O=C(O)Cn1cnc2c(-n3nnc4cc(Cl)ccc43)nc(N3CCN(c4ccc(O)cc4)CC3)nc21 [Example 19]	IC50	1000 to 9770 nM

// fetch IC50 given entry CS(=O)(=O)NC(=O)Cn1cnc2c(-n3ncc4ccccc43)nc(N3CCN(c4ccc(O)cc4)CC3)nc21 [Example 57]
10 to 97.7 nM

// fetch IC50 given entry C[C@H]1CN(c2ccc(O)cc2)CCN1c1nc(-n2ncc3ccccc32)c2ncn(CC(=O)O)c2n1 [Example 15]
1000 to 9770 nM

// fetch IC50 given entry O=C(O)CCCn1cnc2c(-n3ncc4ccccc43)nc(N3CCN(c4ccc(O)cc4)CC3)nc21 [Example 146]
10 to 97.7 nM

// fetch IC50 given entry O=C(O)Cn1cnc2c(-n3ncc4ccccc43)nc(N3CCN(c4ccc(O)cc4)CC3)nc21 [Example 45]
10 to 97.7 nM

// fetch IC50 given entry CN1CCN(c2nc(N3CCN(c4ccc(O)cc4)CC3)nc3c2ncn3-c2ccncc2)CC1=O [Example 175]
10 to 97.7 nM
